# Tested on: OVCAR-5 ovarian
# Measurement notes: NCI-60 one-dose screen, 48 h
# Experimental conditions: 10 µM unless noted
This is part of a sample that, as a whole, favours compounds with a hit. Of some 83,000 tested, about 20% had one in any assay. Active and inactive are the calls of the source. Rule for the calls: active = growth percent below 10; inactive = the rest.
Labels: active, inactive

INSERT INTO measurements (compound, label_value) VALUES
  ('O=C1CCC/C=C\C[C@H]2C=C(Cl)C(=O)/C2=C/C[C@H](CCCCC(F)(F)F)OC(=O)CCC/C=C\C[C@H]2C=C(Cl)C(=O)/C2=C/C[C@H](CCCCC(F)(F)F)O1', 'active'),
  ('CCN1CCN(C(=O)[C@]23CCC(C)(C)C[C@@H]2C2=CC[C@@H]4[C@@]5(C)C/C(=C/c6cccnc6)C(=O)C(C)(C)[C@@H]5CC[C@@]4(C)[C@]2(C)CC3)CC1', 'inactive'),
  ('CC(C)(C)c1[nH]nc2c1C(c1cc3ccccc3[nH]c1=O)Nc1cc(C(=O)OCc3ccccc3)ccc1N2 (stereo not drawn)', 'inactive'),
  ('COc1ccc(-c2nc3ncccn3c2-c2nc3ccc(Br)cc3[nH]2)cc1', 'inactive'),
  ('CCC(CC)C(=O)OC(C)COc1ccc(C(C)(C)C)cc1 (stereo not drawn)', 'inactive'),
  ('COc1ccc(/C=C/C(=O)NCC(C)O)cc1 (stereo not drawn)', 'inactive'),
  ('Brc1ccc(Cn2nnnc2-c2ccn(-c3ccccc3)n2)cc1', 'inactive'),
  ('COC(=O)[C@]12CC[C@@H](C(/C=C/c3cccnc3)=N/O)[C@@H]1[C@H]1CC[C@@H]3[C@@]4(C)CC(=C/c5cccnc5)/C(=N/O)C(C)(C)[C@@H]4CC[C@@]3(C)[C@]1(C)CC2', 'inactive'),
  ('COc1cc(/C=C2\C(=O)N(CC(O)COc3cc(O)c4c(=O)cc(-c5ccccc5)oc4c3)c3ccccc32)cc(OC)c1O (stereo not drawn)', 'inactive'),
  ('COc1cnc2c(c1)C(=O)c1c-2n(CCCN2CCN(CCO)CC2)c(=O)c2cc([N+](=O)[O-])ccc12', 'inactive'),
  ('O=C(/C(=C(\C(=O)c1ccccc1)c1ccccc1)c1ccccc1)c1ccccc1', 'inactive'),
  ('CN(C)c1ccc(N)c2ccccc12', 'inactive'),
  ('Oc1cccc2oc(=S)[nH]c12', 'inactive'),
  ('O=C1Nc2ccccc2/C1=C/c1cn(CCCn2c3ccccc3c(=O)c3ccccc32)c2ccccc12', 'inactive'),
  ('CN(CSc1ccc(Cl)cc1)c1ccc(CSc2ccc(Cl)cc2)cc1', 'inactive'),
  ('NCCn1cc(-c2nc(-c3c[nH]c4ncccc34)cs2)c2cc(Br)ccc21', 'inactive'),
  ('COc1cc2ncnc(Nc3ccc(OCc4cccc(F)c4)c(Cl)c3)c2cc1NC(=O)C1CCCC1', 'inactive'),
  ('CC(=O)OC[C@]12CC[C@@H](/C(C)=N/O)[C@@H]1[C@H]1CC[C@@H]3[C@@]4(C)CCCNC(C)(C)[C@@H]4CC[C@@]3(C)[C@]1(C)CC2', 'inactive'),
  ('CC(C)=CCC[C@](C)(O)[C@H]1CC[C@]2(C)[C@@H]1CC[C@@H]1[C@@]3(C)C/C(=C/c4cccc([N+](=O)[O-])c4)C(=O)C(C)(C)[C@@H]3CC[C@]12C', 'inactive'),
  ('Cn1cc(-c2nc(-c3c[nH]c4ncccc34)cs2)c2cc(F)ccc21', 'inactive'),
  ('Fc1ccc(NCc2nnc(-c3ccc(Cl)cc3)o2)cc1', 'inactive'),
  ('O=C(/C=C/c1cccc(O)c1)c1ccccc1O', 'inactive'),
  ('C=C1C(=O)O[C@H]2[C@H]1CC/C(Cn1cc(-c3ccc(OC)cc3)nn1)=C\CC[C@@]1(C)O[C@@H]21', 'inactive'),
  ('O=C1CCN2C(=O)Nc3ccccc3C2C1 (stereo not drawn)', 'inactive'),
  ('O=C(N/N=C/c1ccccc1SSc1ccccc1/C=N/NC(=O)c1ccccc1)c1ccccc1', 'inactive'),
  ('O=C1CCCC=CC[C@H]2C=C(Cl)C(=O)C2=CC[C@H](CCCCC(F)(F)F)OC(=O)CCCC=CC[C@H]2C=C(Cl)C(=O)C2=CC[C@H](CCCCC(F)(F)F)OC(=O)CCCC=CC[C@H]2C=C(Cl)C(=O)C2=CC[C@H](CCCCC(F)(F)F)O1', 'inactive'),
  ('Cc1ccc(-c2nc([P+](c3ccccc3)(c3ccccc3)c3ccccc3)c(N3C[C@H]4C[C@H](C3)c3cccc(=O)n3C4)o2)cc1', 'inactive'),
  ('COC(=O)[C@]12CC[C@@H](C)[C@H](C)[C@@H]1C1=CC[C@@H]3[C@@](C)(CC#N)C4=C(C[C@@]3(C)[C@]1(C)CC2)OC[C@]4(C)C=O', 'active'),
  ('Cc1nc([P+](c2ccccc2)(c2ccccc2)c2ccccc2)c(Sc2sc(-c3ccccc3)nc2[P+](c2ccccc2)(c2ccccc2)c2ccccc2)o1', 'inactive'),
  ('COc1ccc(-c2nc3c(c(C)nn3-c3ccc(F)cc3)c(=O)[nH]2)cc1', 'inactive'),
  ('C/C(Cc1ccc(Cl)cc1)=C(/c1ccc(Cl)cc1)c1ccc(OCCN2CCCC2)cc1', 'inactive'),
  ('Cc1[c-]onc1C.Cc1[c-]onc1C.[Ag].[Ag].[NH-]S(=O)(=O)c1ccc(N=Nc2cc(N=Nc3ccc(S([NH-])(=O)=O)cc3)c3c(NC(=O)C(Cl)Cl)cccc3c2OC(=O)C(Cl)Cl)cc1', 'inactive'),
  ('C#CCC(C)(O)/C=C/C1=C(C)CCCC1(C)C (stereo not drawn)', 'inactive');

* * *

growth for assorted compounds
# Test system: RPMI-8226 leukemia
# Measurement notes: NCI-60 one-dose screen, 48 h (100 = growth as untreated, 0 = no growth, -100 = all killed)
# Experimental conditions: 10 µM unless noted
About 83,000 compounds went through this panel and 20% of them were active in at least one assay; those are over-represented in the sample as a whole.
Parameter: growth (%)

INSERT INTO results (compound, result_number) VALUES
  ('CC1(C)NC2=C(C(Nc3cccnc3)N1)C(c1ccc([N+](=O)[O-])cc1)C(C(=O)c1ccc(N=[N+]=[N-])cc1)O2 (centres undefined)', 115),
  ('Cc1cc(C)nc(NC(N)=NCCc2ccccc2)n1', 49.7),
  ('COc1ccc(/C(=C\c2ccc3c(c2)OCO3)C(=O)Nc2nc3ccccc3s2)cc1OC', 78.2),
  ('CCc1nnc(NC(=O)c2ccoc2COc2ccccc2)s1', 30.8),
  ('Clc1ccccc1-c1nc(Nc2nc3ccccc3s2)nc(C(Cl)(Cl)Cl)n1', 10.1),
  ('CCc1ccc(-c2ccc(Nc3ccccc3)nn2)cc1S(N)(=O)=O', 27.8),
  ('O=C(NO)c1ccc(Cn2c(=O)n(CCc3ccc(O)cc3)c(=O)c3ccccc32)cc1', 31.6),
  ('NCCn1cc(-c2nc(-c3c[nH]c4ncccc34)cs2)c2cc(Br)ccc21', 43.3),
  ('C=C(C)[C@@H]1CC[C@]2(C(=O)N3CCN(CC)CC3)CC[C@]3(C)[C@H](CC[C@@H]4[C@@](C)(CCC(=O)N5CCN(CC)CC5)[C@H](C(=C)C)CC[C@]43C)[C@@H]12', 22.3);

* * *

# Tested on: HCT-116 colon
# Measurement notes: NCI-60 one-dose screen, 48 h
# Experimental conditions: 10 µM unless noted
# Protocol: Growth inhibition of the HCT-116 human tumor cell line is measured as a screen for anti-cancer activity. Cells are grown in 96 well plates and exposed to the test compound for 48 hours. Compounds are tested at a single concentration, which is 10^-5 M for most compounds. The reported endpoint is percent growth (GI% or GIPRCNT), where numbers from 0 - 100% represent growth inhibition, and numbers from -100% - 0 represent cell death. For example, a value of 40 represents 60% growth inhibition. […]
About 83,000 compounds went through this panel and 20% of them were active in at least one assay; those are over-represented in the sample as a whole. Active and inactive are the calls of the source. Rule for the calls: active = growth percent below 10; inactive = the rest.
Labels: T for active, F for inactive

INSERT INTO results (molecule, label_value) VALUES
  ('COc1cc2c(cc1-c1c(C)noc1C)ncc1nc(C3CC3)n([C@H](C)COC(F)F)c12', 'F'),
  ('COc1cc(/C=C/c2cc(/C=C/c3ccc(O)c(OC)c3)n(-c3ccc(Cl)cc3)c(=O)n2)ccc1O', 'F'),
  ('C#Cc1cc2c(N)c(C(=O)c3cc(OC)c(OC)c(OC)c3)[nH]c2cc1OC', 'F'),
  ('Cn1cc(-c2csc(-c3cn(C(=O)OC(C)(C)C)c4ccc(Br)cc34)n2)c2cccnc21', 'F'),
  ('COc1cc2[nH]c(C(=O)c3cc(OC)c(OC)c(OC)c3)c(N)c2cc1C#CCO', 'F'),
  ('Cc1ccc2c(c1)c1nc3cc(C)c(C)cc3nc1n2CCN(C)C', 'T'),
  ('Cc1csc(Nc2nc(-c3ccc(Cl)cc3)nc(C(Cl)(Cl)Cl)n2)n1', 'F'),
  ('O=C1NC(=Nc2ccc(S(=O)(=O)Nc3nccs3)cc2)S/C1=C\c1coc2ccccc2c1=O', 'F'),
  ('C#Cc1cccc(NC(=O)C2CCCN(C(=O)CCl)C2)c1 (stereo not given)', 'F'),
  ('COc1cnc2c(c1)C(=O)c1c-2n(CCCNC2=NCCS2)c(=O)c2cc([N+](=O)[O-])ccc12', 'T');

Source listed as PubChem BioAssay (NCI).
